B1: CLPTM1 (parent)
chain: MNLHVYISEHEHFTDFNATSALFW

variants of: B1; experiment: protein stability index of a GFP-peptide fusion (GPS, HEK-293T) (PSI 1-6); higher = more stable; conditions: c terminus: a fixed tail appended;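 also: lentivirally expressed fusions sorted by FACS into six bins by GFP to DsRed ratio, PSI derived from sequencing read proportions per bin multiplied by bin number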
// label = 1.0 if protein stability index is not less than 4, otherwise 0.0

Problem: hey, is protein stability index for this one >= 4? MNLHVYISEVEHFTDFNATSALFW [H10V]
Solution: 0.0

Problem: Textbook exercise: given the entry MNLHVYISEHEHFHDFNATSALFW [T14H] , state whether its protein stability index is greater than or equal to 4.
Solution: 1.0

Problem: Textbook exercise: given the entry MNLHVYISNHEHFTDFNATSALFW [E9N] , state whether its protein stability index is greater than or equal to 4.
Solution: 0.0

Problem: Is protein stability index at least 4? Consider MNLPVYISEHEHFTDFNATSALFW [H4P]
Solution: 0.0

Problem: Dear colleague, could you confirm whether MNLHVYILEHEHFTDFNATSALFW [S8L] has protein stability index at or above 4?
Solution: 0.0
